Target: hCA II (Homo sapiens)
Construct: gene CA2; recombinant, cytosolic isoform
Test: stopped-flow CO2 hydration
Format: biochemical
Conditions: CO2 substrate, pH […] Hepes, […] °C, […] min preincubation; read-out: hCAII
measured attribute: Ki (µM)
Report only the number, with the unit µM understood.

q: Look at this molecule and give its reported Ki. COc1ccc(-n2cc(CNC(=O)c3cccc(S(N)(=O)=O)c3)nn2)cc1
a: 9.01
